Each entry below carries its reported protein stability index.
# EXPERIMENTAL DETAILS: protein stability index of a GFP-peptide fusion (yeast GPS) (PSI 1-4); higher = more stable; sorted into four equal gates, so the index is relative within each strain
# SETTINGS: doa10∆

CONSTRUCT SEQUENCE	protein stability index
QLIFRQQTGLVDAITRC [SNU114]	2.97
PNHIPSVNPSNKPIKRM [SWP82]	2.87
SHPEKRMIPPRMVRSIM [SSN3]	3.25
LRLRISRKRNEEEDAKN [RPL31A]	1.72
SVFGFRTQFGGGKSVGF [RPS24A]	2.56
EQVLSAAATFPIAQPAT [RPL13A]	2.66
VPIERVAQLKPFFKYID [RPC37]	2.54

---

Entries and their protein stability index
# EXPERIMENTAL DETAILS: protein stability index of a GFP-peptide fusion (yeast GPS) (PSI 1-4); higher = more stable; sorted into four equal gates, so the index is relative within each strain
# SETTINGS: san1∆
TEST READOUT: protein stability index

CONSTRUCT SEQUENCE	REPORTED VALUE
DPELLRSYIFGGHVSQY [RPL5]	3.33
LGNTVSTQPSFAWSKPS [YGR119C/NUP57]	2.85
EILVLYNVCDTSKSLVK [SIN4]	2.56
HVVGRIAEVGNKRWKVD [RRP4]	2.89
KIINKPNELSQILTVDP [RPC82]	3.01
NLTYYNEKLECISLGST [ITC1]	2.32
EIFHLLQPLEEGLIIDT [SIN4]	2.21
CISLGSTKLSRPFDSFG [ITC1]	3.03
SFDFGNENEDEDEGTLN [ARP9]	3.41
RVHDQPLIWQLLQSSII [POP3]	1.66
TRSQFCLNTQRGDSTET [RRI1]	3.22
YKKIPLLGPTLEDHTPP [QCR10]	2.42
TSVENEGPVANLKDYEL [REC8]	3.03
DTKPFLNKDSTNEFVGS [NUT1]	2.44
SCTLLERGHPKDNARIY [POP1]	2.76
LTFILGQLLSVKFLVYQ [YML031W/NDC1]	1.51
LLQGGAKVVVTTSRFSK [FAS2]	2.72
LPTVGFDFIKDNETPSK [YOR098C/NUP1]	3.08
IMATNRLDILDPALLRP [RPT6]	2.81
LERFNKRADISKRRITE [SMC1]	2.96
RHSGKVYPITLSTDATS [UBP6]	2.74
TNVRLYSLLLASKGIDR [ECM29]	3.48
RKLAVERAGHLLCDKAQ [PRE5]	3.12
YRVTLESILQMNQGEGE [RPC34]	3.46
HHFTCEITGTSCLTFFQ [ITC1]	2.04
DEQDDDNVNSTTGSIFE [BRN1]	2.7
GNSKDDLLDMIQFGAKN [ISW2]	2.95
TIEDIAVAITRASKLKI [RPO31]	2.1
VTSADSNLKISLVKYPE [SWI1]	2.52
EGWFYKRAASVARHIYM [RPS19A]	1.99
KLEGSENSEPPALESSP [SNF2]	3.28
YGITHGLTNWAAAYATG [RPL5]	2.28
VLLVEKYGAEYDLVDNK [NAS6]	3
EFDSTDTSLCINGEPSI [RRI1]	3.08
IAAIIGRLNTLVISLAA [IRR1]	2.31
RLLSALGPRGVSITPGK [SRP21]	3.29
VVEEFTPVVLATPIPEE [RPS5]	2.13
MSGRGKGGKGLGKGGAK [HHF1]	3.61
ALSAYHKVQTKLTRELE [RPS7B]	2.33
TLYIGNTANGRPPVKAI [ECM29]	1.99
TFLESINGINWRFHTPQ [SIN4]	1.93
IYSVEKKISRLPKFLTV [UBP6]	2.14
RVIKDFKKLNSKNMSKS [YMR153W/NUP53]	2.64
SESKQLGNTSSVANTPS [SWI3]	2.98
SKSKQSFTQGELNDLKW [YMR129W/POM152]	3.08
GKKSSSSTKDYLTPPHE [RET1]	3.52
VEKGVNPTKSKEILDNI [ECM29]	3.37
FGHIMEDFQVLRLGRGI [YDL088C/ASM4]	2.49
RVLTQDGRVYIGQLMAF [SMB1]	2.63
KRPGKLSDYIPGPYPNE [CYT1]	3.24
NDIDDLDMELAELDPSL [SEC65]	3.08
SSVTSDSMKYTISSLFV [RPC82]	2.14
ARTIKATLPYIKQDIPI [RPB2]	2.26
SRNGDFPRTRFEAQIDS [RPN10]	3.34
DVDQHGNDNNSDSNANA [SWI3]	3.25
RKNFKMGPLYQNFAEFM [IRR1]	1.72
QHGFEVQVGPMKVFVTK [RPB7]	2.43
EIIADWIWDMNVHGSLE [BRR2]	2.88
NARMPGMPNMPGMPNMP [SRP54]	3.09
DEFKDITKEVTQVNILK [YIL149C/MLP2]	2.67

---

# EXPERIMENTAL DETAILS: protein stability index of a GFP-peptide fusion (yeast GPS) (PSI 1-4); higher = more stable; sorted into four equal gates, so the index is relative within each strain
# SETTINGS: ubr1∆
sequences and their reported protein stability index
TEST READOUT: protein stability index

CONSTRUCT SEQUENCE	REPORTED VALUE
TEQQIEIPEGVTVSIKS [RPL9B]	2.47
DYVVAPGVNREINSEMC [GRR1]	3.13
VPLTKRYQHLEKITQIS [PCI8]	1.71
KNQLRDWIRFVSIRQNQ [RPL22B]	1.29
QKVLNAHRQRAMEARSS [SMC4]	1.32
RAQEEVKRIQSVPLVIG [RPT3]	3.21
KRTIRIKTQQHILPEVP [TAF14]	2.07
HTEDTVNESRNSDDIID [SRB5]	2.46
EQKLIDQHVINILWAIY [YCS4]	1.68
DLNPLKTLNLFKQIKSA [RPO31]	2.15
HRKHIAVLKKIQSKAVE [YCG1]	2.57
EQHHINNLKNSGNSANN [GAL11]	2.32
ILKDLIYRGVLNDENSD [SMC1]	2.21
AGLEITSDNLLTITKAA [RPP1B]	2.65
RMLSSILDINVSSSKNK [SWP82]	2.61
AMNDKDLTMGQVGERIK [RPO21]	3.08
AFADRLGQYVQAHTLYN [PRE10]	2.03
NASQMGNTGSGGYDNAW [RPB3]	2.5
ALKDPQTDADRVKDPQW [RIP1]	3.6
NKQSVSNLSPDLKFKRH [DSN1]	2.34
KFLREVFVDGEANWPLP [RPO21]	3.12
ILDKIFYGVLDQGNGWL [RPN6]	3.11
TRAMEYLKFRELPAGQN [RPB2]	3.02
ISGYKKFSSTSRYMQYN [RPT1]	1.7
TFDGKPTATPSPFRPLE [YMR153W/NUP53]	2.58
MGKSAVIFVERATPATL [SRB2]	1.31
MKTKTINAQGEEIVVVA [PRP8]	1.52
CDVFWVQKDTAIIRLHP [POP1]	2.58
YDYYALQLLPLQKAVRG [SNF2]	1.74
KYQKALHYLKKFKHIDD [SRP72]	2.31
DDLQKFNGIENQSAYEW [ISW2]	3.32
HINKIPSNSTTTLHGPG [SRB8]	3.11
HVKAGKGLIKVNGSPIT [RPS16A]	3.1
IREKVAKQALDLYHFAL [SNF2]	2.54
QLDEFKNKYLKDVLAQT [SWP82]	2.36
INKYESSPSHIELVVTE [RPL17A]	2.17
GSKLEDMSKILVDQGFN [RET1]	3.29
TDTSTTATAATNGNNAG [MED6]	3.29
YKLTNDEEGIFSRFVDQ [YCG1]	2.94
PFTDRSVVRGNTFKVLS [COB]	2.37
ESQLQMDRTSLRKQYSA [SMC3]	2.86
NTSSLQSFQNPFTASQS [YIL149C/MLP2]	2.36
PTHYKIPAWFLNRQNDI [RPS18A]	1.75
EVAQLGSLACDTADEAK [RPB4]	2.73
NLVSLLIIVTRKNYMHV [YML031W/NDC1]	1.3
DFITGSYLISHKDSFYD [RPO31]	1.83
AVSTIASISLAIGYPTL [RPP0]	2.15
IEEHPTVVDAIDNSDEI [IRR1]	3.1
EQKKTATEVTPQEPKHI [RPC19]	2.54
SINISCVQLIKCLVEKS [SWI1]	1.81
NVTLVNGKRRMNPGPSV [RPS30A]	2.65
VIDLEKIKFDESSKLMT [BRR2]	1.32
ELLSSLEGKGSLEEIIA [RPP2B]	1.92
NDEKRVKEEYDIWQSRD [YIL149C/MLP2]	3.39
MNIIQQQQQQNTNNNDT [GAL11]	2.52
AQEDVPYLLPYILEAEA [QCR7]	1.86
MTVTKVSLPEGSFKRVK [BRR2]	3.17
SLFSHRKHTRGDVSSGL [BRN1]	3.22
RYKPGTVALREIRRFQK [HHT1]	3.07
LTIVTCKQFPKLSCIQL [SRB8]	1.6
ELIIDPLFKKALVDFDE [BRN1]	3.29

Data origin, for the record: the supplement of paper PMC9732359
